B1: Caulobacter ParB omega fusion; a variant is named by its letters at X, in order, B8GW30 (parent)
chain: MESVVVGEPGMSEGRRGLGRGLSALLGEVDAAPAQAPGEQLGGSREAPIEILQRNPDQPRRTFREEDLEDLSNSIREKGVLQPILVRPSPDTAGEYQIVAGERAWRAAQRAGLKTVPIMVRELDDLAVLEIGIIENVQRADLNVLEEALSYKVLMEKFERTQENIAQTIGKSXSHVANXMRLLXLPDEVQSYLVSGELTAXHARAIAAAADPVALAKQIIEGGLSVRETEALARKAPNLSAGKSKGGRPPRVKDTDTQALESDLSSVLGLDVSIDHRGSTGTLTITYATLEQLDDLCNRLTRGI

variants of: B1; experiment: one-hybrid fitness for binding parS DNA (scaled: cognate 1, non-cognate 0); higher = stronger binding; details: with parS DNA site
Over roughly 81,000 sequences, “one-hybrid fitness for binding parS DNA” has its median near -0.17; the highest 2% begin near 0.51. Many of the other results were omitted from the sample, so the highest values are more common in it than they were.
Measured one-hybrid fitness for binding parS DNA of individual entries

mutation: RFES
one-hybrid fitness for binding parS DNA: 0.881
//
mutation: AYMW
one-hybrid fitness for binding parS DNA: ≤ 0.2
//
mutation: RLEH
one-hybrid fitness for binding parS DNA: 0.228
//
mutation: QAGT
one-hybrid fitness for binding parS DNA: ≤ 0.2
//
mutation: RFEN
one-hybrid fitness for binding parS DNA: 0.342
//
mutation: LRGD
one-hybrid fitness for binding parS DNA: ≤ 0.2
//
mutation: PVSF
one-hybrid fitness for binding parS DNA: ≤ 0.2
//
mutation: REQN
one-hybrid fitness for binding parS DNA: ≤ 0.2
//
mutation: VTEW
one-hybrid fitness for binding parS DNA: ≤ 0.2
//
mutation: TQMA
one-hybrid fitness for binding parS DNA: ≤ 0.2
//
mutation: RAED
one-hybrid fitness for binding parS DNA: ≤ 0.2
//
mutation: NGAG
one-hybrid fitness for binding parS DNA: ≤ 0.2
//
mutation: THLT
one-hybrid fitness for binding parS DNA: ≤ 0.2
//
mutation: MFNG
one-hybrid fitness for binding parS DNA: ≤ 0.2
//
mutation: RQQR
one-hybrid fitness for binding parS DNA: ≤ 0.2
//
mutation: RQGT
one-hybrid fitness for binding parS DNA: 0.847
//
mutation: RCEP
one-hybrid fitness for binding parS DNA: ≤ 0.2
//
mutation: PWPN
one-hybrid fitness for binding parS DNA: ≤ 0.2
//
mutation: KLNR
one-hybrid fitness for binding parS DNA: ≤ 0.2
//
mutation: TNVG
one-hybrid fitness for binding parS DNA: ≤ 0.2
//
mutation: RLEP
one-hybrid fitness for binding parS DNA: ≤ 0.2
//
mutation: RCES
one-hybrid fitness for binding parS DNA: 1.02
